Tested on: M14
testDescription: NCI tumour cell line growth inhibition, 48 h
Active and inactive are the calls of the source. No stated cut-off is given here; in the data, active = GI50 up to about 1.1 µM and inactive = higher.
Outcome codes: active, inactive

>  <compound>
O=C(CSc1nc2ccc(I)cc2c(=O)n1Cc1ccccc1)NNC(=O)c1ccccc1

>  <assignedCategory>
inactive

$$$$
>  <compound>
Nc1ccccc1C(=O)NC(=O)Nc1ccc(Oc2ncc(Br)cn2)c(Cl)c1

>  <assignedCategory>
active

$$$$
>  <compound>
[N-]=[N+]=Nc1ccc2c(c1)Sc1ccccc1N2CCCCN1CCN(C(=O)CCNC(=O)Cc2ccc(C(=O)c3ccccc3)cc2)CC1

>  <assignedCategory>
inactive

$$$$
>  <compound>
CC(=O)ON(C(C)=O)C1C(COC(c2ccccc2)(c2ccccc2)c2ccccc2)OC2OC3(CCCC3)OC21 (centres undefined)

>  <assignedCategory>
inactive

$$$$
>  <compound>
COP(=O)(OC)/C(=C\c1cn(C(c2ccccc2)(c2ccccc2)c2ccccc2)cn1)NC(C)=O

>  <assignedCategory>
inactive

$$$$
>  <compound>
COc1cc2ccc(=O)oc2cc1O

>  <assignedCategory>
inactive

$$$$
>  <compound>
COc1cc(C(C#N)NNc2nc(C)cc(O)n2)cc(OC)c1OC (centres undefined)

>  <assignedCategory>
inactive

$$$$
>  <compound>
O=c1[nH]nc(Cc2ccccc2)n1/N=C/c1cccnc1

>  <assignedCategory>
inactive

$$$$
>  <compound>
COc1cc([C@@H]2c3cc4c(cc3[C@@H](NCc3ccccc3F)C3COC(=O)[C@@H]32)OCO4)cc(OC)c1O (some centres undefined)

>  <assignedCategory>
inactive

$$$$

* * *

Tested on: SR
testDescription: NCI tumour cell line growth inhibition, 48 h
Activity calls are given as the source filed them. No stated cut-off is given here; in the data, active = GI50 up to about 1.1 µM and inactive = higher.
Possible outcomes: class 1 for active, class 0 for inactive

>  <compound>
CS(=O)(=O)c1nc(N)nc2nc[nH]c12

>  <assayedTarget>
SR

>  <assignedCategory>
class 0

$$$$
>  <compound>
COc1ccc2nc3cc(Cl)ccc3c(Sc3ccccc3[N+](=O)[O-])c2c1

>  <assayedTarget>
SR

>  <assignedCategory>
class 0

$$$$
>  <compound>
O=C(Cc1ccccc1F)NC1=C(Cl)C(=O)c2ccccc2C1=O

>  <assayedTarget>
SR

>  <assignedCategory>
class 1

$$$$
>  <compound>
N/C(=N\c1ccc(Cl)cc1)NS(=O)(=O)c1c(C(F)(F)F)cccc1C(F)(F)F

>  <assayedTarget>
SR

>  <assignedCategory>
class 0

$$$$
>  <compound>
COC1CCCc2c(OC(C)=O)ccc(OC(C)=O)c21 (configuration not stated)

>  <assayedTarget>
SR

>  <assignedCategory>
class 0

$$$$
>  <compound>
CC(=O)NNc1nc(C)c(C(=O)NNC(=O)C(=O)Nc2nc3ccc([N+](=O)[O-])cc3s2)s1

>  <assayedTarget>
SR

>  <assignedCategory>
class 0

$$$$
>  <compound>
O=C1c2ccccc2C(=O)c2[nH]cnc21

>  <assayedTarget>
SR

>  <assignedCategory>
class 0

$$$$
>  <compound>
COC(=O)C1=CC2CCCC1(O)C(C(C)=O)C2 (configuration not stated)

>  <assayedTarget>
SR

>  <assignedCategory>
class 0

$$$$
>  <compound>
CCCCCCCCCCCCOC(=S)NC

>  <assayedTarget>
SR

>  <assignedCategory>
class 0

$$$$
>  <compound>
O=C1c2ccccc2C(=O)c2c(Nc3ccc4c5c(cccc35)C(=O)c3ccccc3-4)cccc21

>  <assayedTarget>
SR

>  <assignedCategory>
class 0

$$$$
>  <compound>
Cc1cc(N=C2C=C(Br)C(=O)C(Br)=C2)cc(CN(CC(=O)O)CC(=O)O)c1O

>  <assayedTarget>
SR

>  <assignedCategory>
class 0

$$$$
>  <compound>
C(=N\c1nc2cc3sc(/N=C/c4ccccc4)nc3cc2s1)/c1ccccc1

>  <assayedTarget>
SR

>  <assignedCategory>
class 0

$$$$
>  <compound>
Cc1cc(C)n(CN(Cn2nc(C)cc2C)C2CCCCC2)n1

>  <assayedTarget>
SR

>  <assignedCategory>
class 0

$$$$
>  <compound>
C=C[C@@]1(C)CCC2(O)C(CCC3C2(C)CCC[C@@]3(C)COC(=O)CC(=O)OC)C1 (some centres not stated)

>  <assayedTarget>
SR

>  <assignedCategory>
class 0

$$$$
>  <compound>
CCOC(=O)CSc1nc(N)c2c(-c3ccccc3)c3c(nc2n1)CCCC3

>  <assayedTarget>
SR

>  <assignedCategory>
class 0

$$$$
>  <compound>
CCSc1nc(N)c2c(-c3ccccc3)c3c(nc2n1)CCC3

>  <assayedTarget>
SR

>  <assignedCategory>
class 0

$$$$
>  <compound>
CCOC(=O)N1CCN(Cc2cc(=O)n3ccc(C)cc3n2)CC1

>  <assayedTarget>
SR

>  <assignedCategory>
class 0

$$$$
>  <compound>
COc1ccc2[nH]c3c(c2c1)COc1ccccc1C3=O

>  <assayedTarget>
SR

>  <assignedCategory>
class 0

$$$$
>  <compound>
COc1cc(C)cc2c(-c3c(O)cc(O)c4c3C[C@H](C)N[C@H]4C)cc(-c3cc(-c4c(O)cc(O)c5c4C[C@H](C)N[C@H]5C)c4cc(C)cc(OC)c4c3O)c(O)c12

>  <assayedTarget>
SR

>  <assignedCategory>
class 0

$$$$
>  <compound>
CCCCCCc1ccc(C(=O)NO)cc1

>  <assayedTarget>
SR

>  <assignedCategory>
class 0

$$$$
>  <compound>
Cc1nnc2sc(Cc3cnc(N)s3)nn12

>  <assayedTarget>
SR

>  <assignedCategory>
class 0

$$$$
>  <compound>
Cc1cc(S(=O)(=O)NC2=Nc3ccccc3C(c3ccccc3)N2)c(S)cc1Cl (configuration not stated)

>  <assayedTarget>
SR

>  <assignedCategory>
class 0

$$$$

* * *

GI50: recorded values
Tested on: T47D
testDescription: NCI tumour cell line growth inhibition, 48 h
The source made the active and inactive calls. Rule as the data show it: active = GI50 up to about 1.1 µM and inactive = higher. Residues, ends and D or L forms follow the SMILES beside them. *: point of attachment. Boc = CC(C)(C)OC(=O)*
observable: GI50

>  <compound>
CCOc1cc(NC(C)=O)ccc1C(=O)NNC(=O)c1ccccc1OC(C)=O

>  <assayedTarget>
T47D

>  <measured>
8.55 µM (inactive)

$$$$
>  <compound>
C=Cn1c([N+](=O)[O-])cnc1/C=C/c1ccc(C(=O)OCCN2CCOCC2)cc1

>  <assayedTarget>
T47D

>  <measured>
> 100 µM (inactive)

$$$$
>  <compound>
COC(=O)C(Cc1c[nH]c2ccccc12)NC(=O)C(Cc1c[nH]c2ccccc12)NC(=O)C(Cc1c[nH]c2ccccc12)NC(=O)C(Cc1c[nH]c2ccccc12)NC(=O)C(Cc1c[nH]c2ccccc12)NC(=O)C(Cc1c[nH]c2ccccc12)NC(=O)OC(C)(C)C (stereo not drawn) (Boc-WWWWWW-OMe; configuration not given here)

>  <assayedTarget>
T47D

>  <measured>
22.2 µM (inactive)

$$$$

* * *

Tested on: OVCAR-5
testDescription: NCI tumour cell line growth inhibition, 48 h
Activity calls are given as the source filed them. Rule as the data show it: active = GI50 up to about 1.1 µM and inactive = higher.
Below is a list of entries, each paired with its recorded GI50 value.
observable: GI50

>  <compound>
COC(=O)c1cc(C)n2c1CS[C@@H]2c1ccccc1

>  <measured>
> 100 µM (inactive)

$$$$
>  <compound>
Cc1ccc(S(N)(=O)=O)cc1 [P-TOLUENESULFONAMIDE]

>  <measured>
> 1000 µM (inactive)

$$$$
>  <compound>
S=C1CSc2c(cnc3ccccc23)N1

>  <measured>
> 100 µM (inactive)

$$$$
>  <compound>
COc1ccc([S+]([O-])Cc2cc(OC)c(OC)c(OC)c2)cc1 (configuration not stated)

>  <measured>
42.9 µM (inactive)

$$$$
>  <compound>
Cc1ccc2c(c1)-c1nc(N)c(C#N)c(-c3ccccc3)c1CCS2(=O)=O

>  <measured>
55 µM (inactive)

$$$$
>  <compound>
COc1cc2c(cc1OC)[C@H]1C(COC(=O)c3ccccc3)CS/C(=N/c3ccccc3)N1CC2 (some centres not stated)

>  <measured>
3.54 µM (inactive)

$$$$
>  <compound>
CCOC(=O)C1Sc2ccccc2N=C1C (configuration not stated)

>  <measured>
> 100 µM (inactive)

$$$$
>  <compound>
Nc1ncnc2c1ncn2C1CCC(CP(=O)(O)O)C1 (configuration not stated)

>  <measured>
> 100 µM (inactive)

$$$$
>  <compound>
O=C(CCc1n[nH]c(=S)o1)Nc1cc(Cl)c(Cl)cc1Cl

>  <measured>
54.3 µM (inactive)

$$$$
>  <compound>
c1nnc(NCNc2nncs2)s1

>  <measured>
79.3 µM (inactive)

$$$$
>  <compound>
O=C(O)CC(O)(c1ccccc1C(=O)O)c1cccc2ccccc12 (configuration not stated)

>  <measured>
> 100 µM (inactive)

$$$$
>  <compound>
O=c1c2cc(Br)cc(Br)c2nc(CCCl)n1CCO

>  <measured>
> 100 µM (inactive)

$$$$

* * *

System: SF-295
testDescription: NCI tumour cell line growth inhibition, 48 h
Calls of active or inactive are those of the source. Rule as the data show it: active = GI50 up to about 1.1 µM and inactive = higher.

>  <compound>
CCOC(=O)C(C(N)=O)C1=Nc2cc([N+](=O)[O-])ccc2N/C1=C\C(=O)c1ccccc1 (stereo unspecified)

>  <GI50>
16.7 µM (inactive)

$$$$
>  <compound>
NC(=O)NN=C(CS)CS

>  <GI50>
23.7 µM (inactive)

$$$$
>  <compound>
O=C1c2ccccc2CC12Cc1ccc3c(c1C2=O)CCCC3 (stereo unspecified)

>  <GI50>
5.96 µM (inactive)

$$$$
>  <compound>
CC(=O)NCCc1c[nH]c2ccc(Cl)cc12

>  <GI50>
> 100 µM (inactive)

$$$$
>  <compound>
O=c1c(O)c(-c2ccccc2)oc2c(CP(=O)(O)O)cccc12

>  <GI50>
> 100 µM (inactive)

$$$$
>  <compound>
Cc1cnc(SCCN2CCN(C)CC2)nc1-c1cc2ccccc2s1

>  <GI50>
9.14 µM (inactive)

$$$$
>  <compound>
Cc1cc(N=C2C=C(Br)C(=O)C(Br)=C2)cc(CN(CC(=O)O)CC(=O)O)c1O

>  <GI50>
> 100 µM (inactive)

$$$$
>  <compound>
O=C(c1ccccc1)c1nnc(C(=O)c2ccccc2)nn1

>  <GI50>
139 µM (inactive)

$$$$
>  <compound>
Cc1ccc(S(N)(=O)=O)cc1 [P-TOLUENESULFONAMIDE]

>  <GI50>
> 1000 µM (inactive)

$$$$
>  <compound>
CCCN(CCC)C(=O)Cc1c2n(c3ccccc13)CCCc1ccccc1-2

>  <GI50>
10.6 µM (inactive)

$$$$
>  <compound>
O=C1C2C3C=CC(C2C(=O)N1COP(=O)(O)O)C1C2C(=O)N(COP(=O)(O)O)C(=O)C2C31 (stereo unspecified)

>  <GI50>
> 100 µM (inactive)

$$$$
